Data origin, for the record: patent US20240400654A1

Molecular target: HRgpA-6H (Porphyromonas gingivalis) (UniProt P28784)
Assay: ELISA, coated HRgpA-6H
endpoint name: OD450 nm
Could you respond with only the numeric value?

KB001 mouse Fab VH A103S (Fab, V domains shown) VH: EVQLKQSGPGLVAPSQSLSITCTVSGFSLSIYSVHWVRQPPGKGLEWLGMIWGGGSSDYNSALKSRLSISKDNSKSQVFLKMNSLQTDDTAMYYCARNGNFYSMDYWGQGTSVTVSS VL: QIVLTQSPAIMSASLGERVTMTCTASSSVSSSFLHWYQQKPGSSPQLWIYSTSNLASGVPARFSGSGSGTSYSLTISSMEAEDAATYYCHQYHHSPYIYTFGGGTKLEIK; 0.909
KB001 mouse Fab VL S27M (Fab, V domains shown) VH: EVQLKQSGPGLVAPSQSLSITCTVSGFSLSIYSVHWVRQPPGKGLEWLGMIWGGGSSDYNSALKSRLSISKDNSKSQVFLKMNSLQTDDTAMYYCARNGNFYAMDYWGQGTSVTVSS VL: QIVLTQSPAIMSASLGERVTMTCTASMSVSSSFLHWYQQKPGSSPQLWIYSTSNLASGVPARFSGSGSGTSYSLTISSMEAEDAATYYCHQYHHSPYIYTFGGGTKLEIK; 0.709

In the following, a different binder is considered.
**Query** Please report OD450 nm for the following binder: KB001 mouse Fab VH Y106I (Fab, V domains shown) VH: EVQLKQSGPGLVAPSQSLSITCTVSGFSLSIYSVHWVRQPPGKGLEWLGMIWGGGSSDYNSALKSRLSISKDNSKSQVFLKMNSLQTDDTAMYYCARNGNFYAMDIWGQGTSVTVSS VL: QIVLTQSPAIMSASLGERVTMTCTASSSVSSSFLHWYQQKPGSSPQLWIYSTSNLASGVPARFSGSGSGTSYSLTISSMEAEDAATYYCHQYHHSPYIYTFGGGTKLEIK
**Result** 0.803
